Source listed as patent US20210355104A1.

target.system: Adenosine A2A receptor (Homo sapiens)
Sequence (P29274 whole entry): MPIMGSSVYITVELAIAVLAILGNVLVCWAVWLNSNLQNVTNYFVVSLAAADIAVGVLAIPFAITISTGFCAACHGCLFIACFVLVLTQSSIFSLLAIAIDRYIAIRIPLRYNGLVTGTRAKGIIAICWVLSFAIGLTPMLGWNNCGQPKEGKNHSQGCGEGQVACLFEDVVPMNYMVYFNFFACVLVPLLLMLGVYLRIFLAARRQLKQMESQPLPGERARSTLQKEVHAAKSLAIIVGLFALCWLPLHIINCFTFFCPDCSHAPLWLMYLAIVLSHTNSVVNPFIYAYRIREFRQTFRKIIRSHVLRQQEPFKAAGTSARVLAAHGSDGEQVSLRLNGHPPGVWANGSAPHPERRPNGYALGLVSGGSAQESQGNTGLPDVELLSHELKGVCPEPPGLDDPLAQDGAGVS
test.details: cAMP assay in 293A cells stably expressing the adenosine A2A receptor (CGS21680 stimulation, HTRF)
Type: cell-based
Set-up: expressed in transfected cells; host or cells: 293A cells (Invitrogen, Cat# R705-07) infected with A2A-expressing lentivirus (custom packaged by Biosettia), puromycin selected
experimental.conditions: 293A-A2AR cells, 0.1% BSA, 8 nM CGS; values separated by / are repeat determinations; read-out: cAMP (nM) 0.1% BSA, 8 nM CGS
Some compounds, each annotated with its measured IC50.

{"line.notation": "CCN(CC)C(=O)[C@H](C)Oc1nc(N)nc(-c2ccccc2)c1-c1cc(C)nc(C(F)(F)F)c1", "output.unit": "nM", "IC50": 10000}
{"line.notation": "Cc1cc(-c2c(OCC(=O)NCC3CCOCC3)nc(N)nc2-c2ccc(F)cc2)cc(C(F)F)n1", "output.unit": "nM", "IC50": 184}
{"line.notation": "Cc1cc(-c2c(OCC(=O)Nc3ccccc3)nc(N)nc2-c2ccc(F)cc2)cc(C(F)F)n1", "output.unit": "nM", "IC50": 6.4}
{"line.notation": "Cc1cc(-c2c(OCC(=O)NCc3ccccc3)nc(N)nc2-c2ccc(F)cc2)cc(C(F)F)n1", "output.unit": "nM", "IC50": 8.7}
{"line.notation": "Cc1cc(-c2c(OCCc3ccc(C(C)(C)O)cc3)nc(N)nc2-c2ccc(F)cc2)cc(C(F)F)n1", "output.unit": "nM", "IC50": 2.7}
{"line.notation": "Cc1cc(-c2c(OCC(C)(C)O)nc(N)nc2-c2ccc(F)cc2)cc(C(F)F)n1", "output.unit": "nM", "IC50": 15}
{"line.notation": "CNC(=O)OCCOc1nc(N)nc(-c2ccccc2)c1-c1cc(C)nc(C(F)(F)F)c1", "output.unit": "nM", "IC50": 4.2}
{"line.notation": "Cc1cc(-c2c(OCCN(C)c3cc(OCCO)ccn3)nc(N)nc2-c2ccc(F)cc2)cc(C(F)F)n1", "output.unit": "nM", "IC50": 5.4}
{"line.notation": "CCN(CC)C(=O)COc1nc(N)nc(-c2ccco2)c1-c1cc(C)nc(C(F)(F)F)c1", "output.unit": "nM", "IC50": 3.2}
{"line.notation": "Cc1cc(-c2c(OCCNS(N)(=O)=O)nc(N)nc2-c2ccccc2)cc(C(F)(F)F)n1", "output.unit": "nM", "IC50": 3.1}
